Each entry below carries its recorded log10 ED50.
Test system: Mus musculus
Assay procedure: Analgesic activity in tail flick test, subcutaneous administration
Type: functional
Condition: Mus musculus, Tail, sc; read-out: ED50
For clarity, the numbers are log10 values of ED50 expressed in mg/kg.

These recorded examples may help you get a feel for the data.
C=CCN(C(=O)C(C)C1(O)CCN(CCc2ccccc2Cl)CC1)C1CCCCC1.O=C(O)/C=C\C(=O)O (centres undefined)    0.60
CC(C(=O)N(C)c1ccc(Cl)cc1)C1(O)CCN(CCc2ccccc2Cl)CC1.O=C(O)/C=C/C(=O)O (centres undefined)    0.83
CCCN(C(=O)C(C)C1(O)CCN(CCc2ccccc2Cl)CC1)c1ccccc1OC.O=C(O)/C=C/C(=O)O (centres undefined)    -0.96
COc1ccccc1N(C)C(=O)C(C)C1(O)CCN(CCc2ccccc2Cl)CC1.O=C(O)/C=C\C(=O)O (centres undefined)    -0.17
CCN(C(=O)C(C)C1(O)CCN(CCc2ccccc2Cl)CC1)c1ccccc1OC.O=C(O)/C=C/C(=O)O (centres undefined)    -1.15

Lab note: next compound to report on.
Short answer for CC(C(=O)N(C)C1CCCCC1)C1CCN(CCc2ccccc2Cl)CC1.Cl (centres undefined) : log10 ED50 was 0.46

Data credit: ChEMBL document CHEMBL1122480
